Cited source for all entries: ChEMBL document CHEMBL1130196

- SYSTEM: 5-hydroxytryptamine receptor 1D (Homo sapiens)
- TEST DETAILS: Compound was evaluated for the stimulation of [35S]GTP-gamma-S, binding in CHO cells expressing the 5-hydroxytryptamine 1D receptor.
- Assay type: functional, cell-based
METRIC: pEC50
Reminder that pEC50 means the negative base-10 logarithm of the concentration expressed in mol/L.

## Input Quick check: pEC50 of "Fc1cccc(CCN2CCN(CCCc3c[nH]c4ccc(-n5cnnc5)cc34)CC2)c1" ?
## Output 8.92

* * *

- SYSTEM: 5-hydroxytryptamine receptor 1D (Homo sapiens, UniProt P28221)
- Sequence (P28221 whole entry): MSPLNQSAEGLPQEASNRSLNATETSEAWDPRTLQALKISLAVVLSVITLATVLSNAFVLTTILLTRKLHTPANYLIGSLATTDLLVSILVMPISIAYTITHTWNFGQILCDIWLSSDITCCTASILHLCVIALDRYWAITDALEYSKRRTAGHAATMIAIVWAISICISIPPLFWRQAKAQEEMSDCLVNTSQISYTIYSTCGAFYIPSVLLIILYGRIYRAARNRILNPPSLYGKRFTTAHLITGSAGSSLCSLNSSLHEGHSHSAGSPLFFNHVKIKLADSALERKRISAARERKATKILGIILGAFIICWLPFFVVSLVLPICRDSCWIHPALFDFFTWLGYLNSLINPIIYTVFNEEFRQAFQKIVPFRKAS
- TEST DETAILS: Maximum stimulation of [35S]GTP-gamma-S, binding to 5-hydroxytryptamine 1D receptor relative to 5-HT
- Assay type: functional
METRIC: Efficacy (%)
The answer is to be given in %; state only the numeric part.

Sample records with Efficacy:
[[record]]
smiles = "c1ccc(CN2CCN(CCCc3c[nH]c4ccc(-n5cnnc5)cc34)CC2)cc1"
metric = "Efficacy"
unit_descriptor = "%"
value_measured = 56

[[record]]
smiles = "Fc1ccccc1CCN1CCN(CCCc2c[nH]c3ccc(-n4cnnc4)cc23)CC1"
metric = "Efficacy"
unit_descriptor = "%"
value_measured = 80


## Input Fill in: Efficacy of "c1ccc(CCN2CCN(CCCc3c[nH]c4ccc(-n5cnnc5)cc34)CC2)cc1" is ___
## Output 65

## Input Field entry: "CC(=O)Nc1cccc(CCN2CCN(CCCc3c[nH]c4ccc(-n5cnnc5)cc34)CC2)c1"
## Output 96

## Input Next molecule: "Fc1cc(F)cc(CCN2CCN(CCCc3c[nH]c4ccc(-n5cnnc5)cc34)CC2)c1"
## Output 86

## Input Repeat for the following molecule: "Fc1ccc(CCN2CCN(CCCc3c[nH]c4ccc(-n5cnnc5)cc34)CC2)cc1F"
## Output 86

## Input Okay, and "CN1CCN(CCc2c[nH]c3ccc(-n4cnnc4)cc23)CC1" ?
## Output 63

## Input Same question, "c1cc2[nH]cc(CCN3CCCC3)c2cc1-n1cnnc1" this time
## Output 120

## Input Then what about the molecule "Fc1ccc(CCN2CCN(CCCc3c[nH]c4ccc(-n5cnnc5)cc34)CC2)cc1" ?
## Output 81

## Input Same for "CC(=O)Nc1ccc(CCN2CCN(CCCc3c[nH]c4ccc(-n5cnnc5)cc34)CC2)cc1"
## Output 85

## Input What do you get for "CN1CCN(CCCc2c[nH]c3ccc(-n4cnnc4)cc23)CC1" ?
## Output 104

* * *

- SYSTEM: 5-hydroxytryptamine receptor 1B (Homo sapiens)
- Sequence (P28222 whole entry): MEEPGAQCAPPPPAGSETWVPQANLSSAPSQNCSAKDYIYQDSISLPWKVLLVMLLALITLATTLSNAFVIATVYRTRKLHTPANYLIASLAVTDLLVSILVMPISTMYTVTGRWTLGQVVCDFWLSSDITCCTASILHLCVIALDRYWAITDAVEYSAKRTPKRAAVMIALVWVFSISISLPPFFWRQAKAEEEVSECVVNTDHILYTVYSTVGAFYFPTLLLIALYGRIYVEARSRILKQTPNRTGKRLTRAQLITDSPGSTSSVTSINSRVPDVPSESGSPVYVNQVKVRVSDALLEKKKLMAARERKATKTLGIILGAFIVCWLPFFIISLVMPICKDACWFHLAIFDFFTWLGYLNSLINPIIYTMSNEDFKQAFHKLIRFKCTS
- TEST DETAILS: Compound was evaluated for the affinity at 5-hydroxytryptamine 1B receptor
METRIC: pIC50
pIC50 is defined as minus the log10 of a concentration measured in mol/L.

## Input Name the reported pIC50 value associated with the molecule "Fc1cccc(CCN2CCN(CCCc3c[nH]c4ccc(-n5cnnc5)cc34)CC2)c1"
## Output 7.12

* * *

- SYSTEM: 5-hydroxytryptamine receptor 1B (Homo sapiens)
- TEST DETAILS: Displacement of [3H]5-HT from human 5-hydroxytryptamine 1B receptor expressed in CHO cells
- Type: cell-based
pIC50: −log10 of the molar value.
// label = Criterion met if pIC50 is not less than 7, otherwise Criterion not met

Before answering, review these 2 worked examples.
[[record]]
smiles = "c1ccc(CCN2CCN(CCCc3c[nH]c4ccc(-n5cnnc5)cc34)CC2)cc1"
category_label = "Criterion not met"

[[record]]
smiles = "Fc1cc(F)cc(CCN2CCN(CCCc3c[nH]c4ccc(-n5cnnc5)cc34)CC2)c1"
category_label = "Criterion met"


// next entry
## Input Test whether the compound "CC(=O)Nc1cccc(CCN2CCN(CCCc3c[nH]c4ccc(-n5cnnc5)cc34)CC2)c1" records pIC50 of 7 or higher.
## Output Criterion not met
